# experiment.description: Drug level in brain of patient with invasive candidiasis measured 23 hrs post last dose by HPLC
# Type: ADME, tissue-based
# experimental.parameters: human, read-out: Drug uptake
Starred links: 1 amine or outer side, 2 acyl side, 3 side chain; linkers in the order of their positions; H or OH if unused. Positions of bridges follow the written chain, without caps; N, C: chain ends. Non-standard residues stand in square brackets, D forms with d. Residues, ends and D or L forms follow the SMILES beside them. *: point of attachment. hTyr(3S-OH,4S-OH,3'-OSO3H) = N[C@H](C(=O)O)[C@H](O)[C@@H](O)c1ccc(O)c(OS(=O)(=O)O)c1; Orn(4R-OH,5R-OH) = O=C([C@H](C[C@@H](O)[C@@H](O)N[*:3])N[*:1])[*:2]; Pro(3S-OH,4S-Me) = C[C@H]1CN[C@H](C(=O)O)[C@H]1O; X1 = CCCCCOc1ccc(-c2cc(-c3ccc(C(=O)*)cc3)no2)cc1; Gln(3R-OH) = NC(=O)C[C@@H](O)[C@H](N)C(=O)O; Hyp = O=C(O)[C@@H]1C[C@@H](O)CN1
measured.endpoint: concentration at 23 h
Could you kindly put the unit after your number?

Memo: CCCCCOc1ccc(-c2cc(-c3ccc(C(=O)N[C@H]4C[C@@H](O)[C@@H](O)NC(=O)[C@@H]5[C@@H](O)[C@@H](C)CN5C(=O)[C@H]([C@H](O)CC(N)=O)NC(=O)[C@H]([C@H](O)[C@@H](O)c5ccc(O)c(OS(=O)(=O)O)c5)NC(=O)[C@@H]5C[C@@H](O)CN5C(=O)[C@H]([C@@H](C)O)NC4=O)cc3)no2)cc1 [MICAFUNGIN] (X1-[Orn(4R-OH,5R-OH)]T[Hyp][hTyr(3S-OH,4S-OH,3'-OSO3H)][Gln(3R-OH)][Pro(3S-OH,4S-Me)]; lactam 1-C) , reported concentration at 23 h: 280 ng/mL

====

# experiment.description: Drug level in rabbit brain at 1 mg/kg/day, iv for 8 days measured 30 mins after last dose
# Format: ADME, organism-based, Oryctolagus cuniculus
# Parameters: route intravenous
# experimental.parameters: read-out: Drug uptake
Starred links: 1 amine or outer side, 2 acyl side, 3 side chain; linkers in the order of their positions; H or OH if unused. Positions of bridges follow the written chain, without caps; N, C: chain ends. Non-standard residues stand in square brackets, D forms with d. Residues, ends and D or L forms follow the SMILES beside them. *: point of attachment. hTyr(3S-OH,4S-OH,3'-OSO3H) = N[C@H](C(=O)O)[C@H](O)[C@@H](O)c1ccc(O)c(OS(=O)(=O)O)c1; Orn(4R-OH,5R-OH) = O=C([C@H](C[C@@H](O)[C@@H](O)N[*:3])N[*:1])[*:2]; Pro(3S-OH,4S-Me) = C[C@H]1CN[C@H](C(=O)O)[C@H]1O; X1 = CCCCCOc1ccc(-c2cc(-c3ccc(C(=O)*)cc3)no2)cc1; Gln(3R-OH) = NC(=O)C[C@@H](O)[C@H](N)C(=O)O; Hyp = O=C(O)[C@@H]1C[C@@H](O)CN1
measured.endpoint: concentration at 0.5 h (ng/g)
I only need the number, in ng/g, no unit after it.

Lab book: concentration at 0.5 h of CCCCCOc1ccc(-c2cc(-c3ccc(C(=O)N[C@H]4C[C@@H](O)[C@@H](O)NC(=O)[C@@H]5[C@@H](O)[C@@H](C)CN5C(=O)[C@H]([C@H](O)CC(N)=O)NC(=O)[C@H]([C@H](O)[C@@H](O)c5ccc(O)c(OS(=O)(=O)O)c5)NC(=O)[C@@H]5C[C@@H](O)CN5C(=O)[C@H]([C@@H](C)O)NC4=O)cc3)no2)cc1 [MICAFUNGIN] (X1-[Orn(4R-OH,5R-OH)]T[Hyp][hTyr(3S-OH,4S-OH,3'-OSO3H)][Gln(3R-OH)][Pro(3S-OH,4S-Me)]; lactam 1-C) noted as 100
